Source: patent US20170246166A1

- STUDY_SYSTEM: UniProtKB P05771
- Sequence (P05771 1-673 isoform P05771-2): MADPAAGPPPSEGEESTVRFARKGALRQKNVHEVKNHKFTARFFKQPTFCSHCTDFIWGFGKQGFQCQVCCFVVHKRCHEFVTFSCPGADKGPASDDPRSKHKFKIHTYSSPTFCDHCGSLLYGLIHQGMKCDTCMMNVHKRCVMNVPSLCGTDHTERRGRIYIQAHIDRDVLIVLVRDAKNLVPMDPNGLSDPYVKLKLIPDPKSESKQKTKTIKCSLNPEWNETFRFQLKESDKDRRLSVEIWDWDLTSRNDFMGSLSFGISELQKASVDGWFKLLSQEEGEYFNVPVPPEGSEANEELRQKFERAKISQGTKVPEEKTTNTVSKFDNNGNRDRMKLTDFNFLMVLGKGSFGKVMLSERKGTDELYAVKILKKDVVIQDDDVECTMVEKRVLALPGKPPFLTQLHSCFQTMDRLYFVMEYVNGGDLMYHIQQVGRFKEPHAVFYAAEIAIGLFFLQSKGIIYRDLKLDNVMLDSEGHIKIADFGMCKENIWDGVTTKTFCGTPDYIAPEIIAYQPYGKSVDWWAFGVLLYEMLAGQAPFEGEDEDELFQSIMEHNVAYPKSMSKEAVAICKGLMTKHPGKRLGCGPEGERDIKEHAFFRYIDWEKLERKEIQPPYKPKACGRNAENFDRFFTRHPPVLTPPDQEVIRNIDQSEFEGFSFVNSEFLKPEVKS
- MEASUREMENT_PROTOCOL: PKC isoforms based HTRF KinEASE-STK assay, PKCβ2
- PARTICULARS: 25 μM ATP in substrate mix, 30 min
pIC50: −log10 of the molar value.
PROPERTY_LABEL: pIC50

Query: Fill in: pIC50 of C[C@@H]1CN(C(=O)c2cc(-c3c(F)cc(O)cc3F)cc3cnsc23)C[C@H](C)N1.Cl [Example 2, HYDROCHLORIDE] is ___
Result: ~7.29

* * *

- STUDY_SYSTEM: human PKCι (Homo sapiens, UniProt P41743)
- Sequence (P41743 whole entry, canonical isoform): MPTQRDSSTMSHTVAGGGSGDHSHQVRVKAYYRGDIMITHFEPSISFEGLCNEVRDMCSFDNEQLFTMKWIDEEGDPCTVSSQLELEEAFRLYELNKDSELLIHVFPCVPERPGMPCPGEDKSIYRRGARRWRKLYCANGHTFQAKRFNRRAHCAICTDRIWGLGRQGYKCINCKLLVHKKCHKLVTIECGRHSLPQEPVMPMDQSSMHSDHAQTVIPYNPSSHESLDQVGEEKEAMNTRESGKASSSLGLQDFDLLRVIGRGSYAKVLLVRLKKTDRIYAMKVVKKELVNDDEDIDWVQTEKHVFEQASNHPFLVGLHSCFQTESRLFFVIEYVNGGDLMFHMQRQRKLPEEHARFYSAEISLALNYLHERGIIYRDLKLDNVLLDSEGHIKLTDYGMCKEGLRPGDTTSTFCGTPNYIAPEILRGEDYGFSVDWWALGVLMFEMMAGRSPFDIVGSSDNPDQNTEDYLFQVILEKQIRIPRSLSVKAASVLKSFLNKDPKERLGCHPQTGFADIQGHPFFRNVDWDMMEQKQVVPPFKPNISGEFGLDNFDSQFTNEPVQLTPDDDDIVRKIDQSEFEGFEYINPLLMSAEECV
- MEASUREMENT_PROTOCOL: PKC isoforms based HTRF KinEASE-STK assay, PKCι
- PARTICULARS: 87.5 μM ATP in substrate mix, 70 min
pIC50: −log10 of the molar value.
PROPERTY_LABEL: pIC50

Query: Dear colleague, I am looking for the recorded pIC50 of the following compound: C[C@@H]1CN(C(=O)c2cc(-c3c(F)cc(O)cc3F)cc3cnsc23)C[C@H](C)N1.Cl [Example 2, HYDROCHLORIDE]
Result: < 4.70

* * *

- STUDY_SYSTEM: human PKCζ (Homo sapiens)
- Sequence (Q05513 whole entry, canonical isoform): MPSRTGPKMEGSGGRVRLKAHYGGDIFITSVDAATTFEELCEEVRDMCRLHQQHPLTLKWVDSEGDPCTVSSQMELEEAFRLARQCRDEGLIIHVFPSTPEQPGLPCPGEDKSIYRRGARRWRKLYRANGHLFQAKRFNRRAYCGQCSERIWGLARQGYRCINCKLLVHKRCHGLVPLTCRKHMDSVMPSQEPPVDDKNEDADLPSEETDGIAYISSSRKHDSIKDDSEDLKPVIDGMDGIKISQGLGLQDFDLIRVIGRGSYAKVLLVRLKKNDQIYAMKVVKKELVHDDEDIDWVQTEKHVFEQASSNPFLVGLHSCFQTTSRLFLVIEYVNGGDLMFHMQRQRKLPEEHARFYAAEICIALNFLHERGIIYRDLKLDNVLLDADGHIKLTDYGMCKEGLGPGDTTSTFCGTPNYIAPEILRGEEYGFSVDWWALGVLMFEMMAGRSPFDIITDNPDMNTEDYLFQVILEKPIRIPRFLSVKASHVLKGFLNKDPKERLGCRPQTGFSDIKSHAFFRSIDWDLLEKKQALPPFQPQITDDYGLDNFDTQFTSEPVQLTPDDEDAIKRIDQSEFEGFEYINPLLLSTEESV
- MEASUREMENT_PROTOCOL: PKC isoforms based HTRF KinEASE-STK assay, PKCζ
- PARTICULARS: 10 μM ATP in substrate mix, 70 min
pIC50: −log10 of the molar value.
PROPERTY_LABEL: pIC50

Query: What reported pIC50 corresponds to C[C@@H]1CN(C(=O)c2cc(-c3c(F)cc(O)cc3F)cc3cnsc23)C[C@H](C)N1.Cl [Example 2, HYDROCHLORIDE] on human PKCζ (Homo sapiens)?
Result: ~4.81
